Molecular target: pooled human IgG (human IgG1,2,3 and 4)
Measured Enzyme Activity Endpoint Assay (purified): IgG of individual entries
metric: Enzyme Activity Endpoint Assay (purified): IgG

protein: PRT-345 (protein) MTITSVWTKGVTPPTPEDFRENNEDVLHAPYLANQGWYDITKAFDGKDNLLCGAATAGNMLHWWFDQNKEEIERYLKKHPEKQKIIFNNQELFDVKAAIDTKDSQTNSKLFDYFRDKAFPNLSARQLGVMPDLVLDMFINGYYLNLGKTQSTDVNRPYQDKDKRGGIFDAVFTRGDQTTLLTARHDLKNKGLNEISDLIKQELTEGKALALSHTYANVSINHVINLWGADFDAEGELEAIYVTDSDANPSIGMKKYFVGRNAHGKVAISAKKIEGDNIGAQVLGLFTLSTGQDIWQKLS
test_value: 123 ng/µL
//
protein: PRT-334 (protein) MTITSVWTKGVTPPTPEDFRENNEDVLHAPYVANQGWYDITKTFDGKDNLLCGAATAGNMLHWWFDQNKEEIERYLKKHPEKQKIIFGNQELFDVKAAIDTKDSQTNSKLFDYFRDKAFPGLSARQLGVFPDLVLDMFINGYYLNLGKTQSTDVNRPYQDKDKRGGIFDAVFTRGVQTTLLTARHDLKNKGLNEISDLIKQELTEGKALALSHTYANVRINHVINLWGADFDAEGELIAIYVTDSDANPSIGMKKYFVGRNANGKVAISAKKIEGDNIGAQVLGLFTLSTGQDIWQKLS
test_value: 154 ng/µL
//
protein: PRT-501 (protein) MVTSVWTKGVTPPADFTQGEDVFHAPYVANQGWYDITKTFNGKDDLLCGAATAGNMLHWWFDQNKEYIEAYLKKHPEKQKIMFGDQELLDVRKAINTKGSQKNSELFNYFRDKAFPNLSARRLGVMPDLVLDMFINGYYLNVTKTQTTDVNRTYQEKDKRGGIFDAVFTRGDQSKLLTSRHDLKNKGLKEISDLIKQELTEGKALGLSHTYANVRINHVINLWGADFDSDGNLKAIYVTDSDSNASIGMKKYFVGVNSAGKVAISAKEIKEDNIGAQVLGLFTLSTGQDIWNQTNLEHHHHHH
test_value: 1950 ng/µL
//
protein: PRT-472 (protein) MVTSVWTKGVTPPTDFIYGEDVLHAPYKAGQGWYDITKTFNGKDDLLCGAATAGNMLHWWFDQNKEQIENYLKKHPEKQKINFNGEQMFDVKEAIDTKDSQLDSKLFEYFKEKAFPYLSTKHLGVFPDHVIDMFINGYRLSLTNHGPTPVKRGSKDPRGGIFDAVFTRGDQSKLLTNRHDLKNKTLKEISDLIKQELTEGKALGISHTYANVRINHVINLWGADFDAEGNLEAIYVTDSDSNASIGMKKYFVGVNSNGKVAISAKEIEEDNIGAQVLGLFTLSTGQDIWNQTNLEHHHHHH
test_value: 0 ng/µL
